Biological target: recombinant mTOR (FLAG-tagged, residues 1362-2549) (Homo sapiens, UniProt P42345)
Sequence (P42345 1362-2549): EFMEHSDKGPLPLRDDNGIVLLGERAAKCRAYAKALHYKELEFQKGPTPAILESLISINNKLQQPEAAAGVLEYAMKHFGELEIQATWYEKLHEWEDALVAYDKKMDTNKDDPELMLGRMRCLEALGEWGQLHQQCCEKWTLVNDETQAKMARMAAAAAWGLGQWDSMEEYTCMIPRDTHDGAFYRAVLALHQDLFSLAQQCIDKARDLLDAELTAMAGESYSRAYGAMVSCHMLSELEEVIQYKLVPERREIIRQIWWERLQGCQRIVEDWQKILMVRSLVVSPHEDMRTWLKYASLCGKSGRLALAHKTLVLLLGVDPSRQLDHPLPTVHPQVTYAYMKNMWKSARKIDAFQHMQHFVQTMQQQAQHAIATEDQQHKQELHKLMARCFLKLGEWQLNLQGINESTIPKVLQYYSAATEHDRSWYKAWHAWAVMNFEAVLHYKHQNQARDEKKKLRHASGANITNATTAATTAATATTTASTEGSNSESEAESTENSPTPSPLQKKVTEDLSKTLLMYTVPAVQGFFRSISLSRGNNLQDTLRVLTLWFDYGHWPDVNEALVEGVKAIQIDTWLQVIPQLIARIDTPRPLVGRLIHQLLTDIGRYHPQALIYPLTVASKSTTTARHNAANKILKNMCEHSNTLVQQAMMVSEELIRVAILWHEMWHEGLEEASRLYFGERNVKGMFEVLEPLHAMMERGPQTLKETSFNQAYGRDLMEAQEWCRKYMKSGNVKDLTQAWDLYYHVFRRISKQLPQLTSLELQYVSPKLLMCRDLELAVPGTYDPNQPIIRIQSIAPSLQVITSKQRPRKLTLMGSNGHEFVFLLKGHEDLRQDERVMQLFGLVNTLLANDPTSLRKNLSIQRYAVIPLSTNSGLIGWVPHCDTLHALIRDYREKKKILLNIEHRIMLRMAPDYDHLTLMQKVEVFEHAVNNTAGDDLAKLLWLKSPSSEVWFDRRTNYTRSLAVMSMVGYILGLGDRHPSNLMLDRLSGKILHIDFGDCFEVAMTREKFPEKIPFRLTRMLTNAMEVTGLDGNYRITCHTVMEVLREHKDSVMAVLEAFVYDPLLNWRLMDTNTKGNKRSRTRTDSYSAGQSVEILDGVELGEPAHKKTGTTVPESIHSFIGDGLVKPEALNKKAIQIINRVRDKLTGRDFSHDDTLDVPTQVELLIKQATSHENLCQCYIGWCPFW
Assay: In vitro mTOR kinase assay (Test (a), AlphaScreen)
Conditions: ATP 20 μM, read-out: Test (a): IC50 versus mTOR kinase
Label scheme, based on IC50: lower: < 90 nM; middle: ≥ 90 nM and < 600 nM; upper: ≥ 600 nM

Please indicate the class for Cc1cnc(CNC(=O)Nc2ccc(-c3nc(CS(C)(=O)=O)cc(N4CCOC[C@@H]4C)n3)cc2)cn1 [Example 24c] based on its IC50.
middle

Returns: class label. Input: C[C@H]1COCCN1c1cc(CN2CCS(=O)(=O)CC2)nc(-c2ccc(NC(=O)NC3CC3)cc2)n1
lower
